These data points were gathered from ChEMBL document CHEMBL1201862.

Test system: A549
EXPERIMENTAL PROTOCOL: NCI tumour cell line growth inhibition, 48 h
The source made the active and inactive calls. Cut-off read from the data, not from the text of the source: active = GI50 up to about 1.1 µM and inactive = higher.
Could you please report measured GI50 for the items listed next?

Lab book: GI50 of "COC(=O)CCc1cccnc1/C=N/O" noted as > 100 µM (inactive)

Lab book: GI50 of "CCCCCCCCCCCCCCCCP(=O)([O-])OCC[N+](C)(C)C" noted as 18.1 µM (inactive)

Lab book: GI50 of COc1ccc(/C=C2/SC(c3ccccc3)N(NC(=O)CCCCCCCCC(=O)NN3C(=O)/C(=C\c4ccc(OC)c(OC)c4)SC3c3ccccc3)C2=O)cc1OC (stereo not drawn) noted as > 100 µM (inactive)

###

System: OVCAR-5
EXPERIMENTAL PROTOCOL: NCI tumour cell line growth inhibition, 48 h
Activity calls are given as the source filed them. Cut-off read from the data, not from the text of the source: active = GI50 up to about 1.1 µM and inactive = higher.
Could you please report measured GI50 for the items listed next?

Lab book: GI50 of "CCN(CC)CCO/N=C1\CC[C@H]2[C@@H]3CCc4cc(OC)ccc4[C@H]3CC[C@]12C" noted as 3.17 µM (inactive)

Lab book: GI50 of "O=[N+]([O-])c1cccc(/N=N/c2c(O)c(S(=O)(=O)O)cc3cc(S(=O)(=O)O)ccc23)c1" noted as > 100 µM (inactive)

Lab book: GI50 of "CNC(=O)CNC(=O)N(C[C@@H]1CCCN1C(=O)[C@H](CC(C)C)NC(=O)OC(C)(C)C)C(C)C" noted as > 100 µM (inactive)

Lab book: GI50 of "COc1ccc(Nc2nc3ccccc3nc2C(=O)O)cc1OC" noted as > 100 µM (inactive)

Lab book: GI50 of S=c1c2nc[nH]c2ncn1CCSC1=NC=NC2=NC=NC21 (stereo not given) noted as > 100 µM (inactive)

Lab book: GI50 of "COC(=O)CCc1cccnc1/C=N/O" noted as > 100 µM (inactive)

Lab book: GI50 of "C/C(=N\NC(=O)N/N=C(\C)c1ccccn1)c1ccccn1" noted as > 52.6 µM (inactive)

Lab book: GI50 of O=C1CCC2(c3ccc(Cl)cc3)Nc3ncncc3N12 (stereo not given) noted as > 10 µM (inactive)

Lab book: GI50 of "CCN(CC)c1ccc2cc(-c3nnc(-c4ccccc4)o3)c(=O)oc2c1" noted as 56.2 µM (inactive)

Lab book: GI50 of "CN(C)CCNC(=O)c1cccc2cc3cc(O)ccc3nc12" noted as 1.46 µM (inactive)

###

Could you please report measured GI50 for the items listed next?
Test system: HOP-18
EXPERIMENTAL PROTOCOL: NCI tumour cell line growth inhibition, 48 h
Active and inactive are the calls of the source. No stated cut-off is given here; in the data, active = GI50 up to about 1.1 µM and inactive = higher.

Entry COc1ccc(C2ON(c3cccc(C)n3)CC=C2C)cc1 (stereo not given) : GI50 on HOP-18 = > 100 µM (inactive)

Entry "CC1(O)C=CC(=O)C=C1" : GI50 on HOP-18 = 58.2 µM (inactive)

Entry "C\C=C/C=C/C=C/C(=O)O" : GI50 on HOP-18 = > 100 µM (inactive)

Entry CC(=O)NC1C(OCc2ccccc2)OC(COC(=O)CCCCCCCCCCNC(=O)CCNc2ccc([N+](=O)[O-])c3[nH]c4ccc(O)cc4c(=O)c23)C(O)C1OC(C)C(=O)N[C@H](C(=O)N[C@H](CCC(=O)O)C(N)=O)C(C)C (stereo not given in full) : GI50 on HOP-18 = > 100 µM (inactive)

Entry "CS(=O)(=O)N/N=C/CN1C(=O)c2ccccc2C1=O" : GI50 on HOP-18 = > 100 µM (inactive)

Entry "O=C1/C(=C/c2ccc(Cl)c(Cl)c2)CNC/C1=C\c1ccc(Cl)c(Cl)c1" : GI50 on HOP-18 = 33.7 µM (inactive)

Entry O=C(CN1CCCCC1)N1CCc2c([nH]c3ccccc23)C1c1cccnc1 (stereo not given) : GI50 on HOP-18 = > 100 µM (inactive)

Entry "CCN(c1n[n+]2c(-c3ccccc3)csc2s1)c1n[n+]2c(-c3ccccc3)csc2s1" : GI50 on HOP-18 = > 100 µM (inactive)

Entry "COc1ccc(Br)c(CN2CCc3ccccc32)c1OS(=O)(=O)c1ccc(C)cc1" : GI50 on HOP-18 = > 100 µM (inactive)

Entry C/C=C(/CCC1NCCc2c1[nH]c1ccccc21)[Si](C)(C)C (stereo not given) : GI50 on HOP-18 = 11.9 µM (inactive)

###

Test system: SK-MEL-5
EXPERIMENTAL PROTOCOL: NCI tumour cell line growth inhibition, 48 h
Calls of active or inactive are those of the source. Rule as the data show it: active = GI50 up to about 1.1 µM and inactive = higher.
Could you please report measured GI50 for the items listed next?

Lab book: GI50 of CC(=O)OC1/C(=C/c2ccc([N+](=O)[O-])cc2)C[C@H]2[C@@H]3CC=C4C[C@@H](OC(C)=O)CC[C@]4(C)[C@H]3CC[C@]12C (stereo not given in full) noted as > 100 µM (inactive)

Lab book: GI50 of S=c1c2nc[nH]c2ncn1CCSC1=NC=NC2=NC=NC21 (stereo not given) noted as > 100 µM (inactive)

Lab book: GI50 of "O=C(CC1=NCCN1)c1ccccc1" noted as > 750 µM (inactive)

Lab book: GI50 of "COC(=O)[C@]12C3=C(O)C(=O)C[C@H]1OC[C@H]2C=CC3" noted as > 100 µM (inactive)

Lab book: GI50 of CC(NC(=O)C(OC(=O)C(C)NC(=O)OC(C)(C)C)C(C)C)C(=O)OC(C(=O)O)C(C)C (stereo not given) noted as > 100 µM (inactive)

Lab book: GI50 of "Cc1c(NC(=S)N/N=C\C(=N/NC(=S)Nc2c(C)n(C)n(-c3ccccc3)c2=O)c2ccccc2)c(=O)n(-c2ccccc2)n1C" noted as > 100 µM (inactive)

Lab book: GI50 of "Nc1ccc(-c2nc3cc(F)ccc3s2)cc1" noted as 61.4 µM (inactive)

Lab book: GI50 of "CCN(c1n[n+]2c(-c3ccccc3)csc2s1)c1n[n+]2c(-c3ccccc3)csc2s1" noted as 38 µM (inactive)

Lab book: GI50 of COc1ccc(CC2(O)C3CC4CCC2C4C3)cc1 (stereo not given) noted as 31.9 µM (inactive)

Lab book: GI50 of Cc1ccc(C)n1-c1ccccc1C1C=Cn2c3c1c(=O)c(OC(C)C)c(OC(C)C)c-3n[nH]c2=O (stereo not given) noted as 5.01 µM (inactive)

###

Tested on: DLD-1
EXPERIMENTAL PROTOCOL: NCI tumour cell line growth inhibition, 48 h
Calls of active or inactive are those of the source. Cut-off read from the data, not from the text of the source: active = GI50 up to about 1.1 µM and inactive = higher.
QUANTITY KIND: GI50

Lab book: GI50 of COc1cc(C2c3cc4c(cc3[C@@H](Oc3ccc(F)cc3)C3COC(=O)[C@H]23)OCO4)cc(OC)c1O (stereo not given in full) noted as 0.656 µM (active)

Lab book: GI50 of "CN(C)CCNC(=O)c1cccc2c1nc(-c1cccnc1)c1ccccc12" noted as 4.1 µM (inactive)

Lab book: GI50 of "O=C(O)/C=C/c1c[nH]c(=O)[nH]c1=O" noted as > 250 µM (inactive)

Lab book: GI50 of "CCN(c1n[n+]2c(-c3ccccc3)csc2s1)c1n[n+]2c(-c3ccccc3)csc2s1" noted as > 100 µM (inactive)

Lab book: GI50 of "CN(C)CCNC(=O)c1cccc2cc3cc(O)ccc3nc12" noted as 1.42 µM (inactive)

Lab book: GI50 of "Cc1c(C(=O)/C=C/c2ccccc2Cl)[n+]([O-])c2ccccc2[n+]1[O-]" noted as 6.53 µM (inactive)

Lab book: GI50 of O=C(CN1CCCCC1)N1CCc2c([nH]c3ccccc23)C1c1cccnc1 (stereo not given) noted as > 100 µM (inactive)

Lab book: GI50 of "CC(=O)CC(=O)N(CCN(C(=O)CC(C)=O)c1ccccc1)c1ccccc1" noted as > 100 µM (inactive)

Lab book: GI50 of "CC1=NN(C(=O)c2ccccc2O)C(=O)/C1=C/c1ccc(O)cc1" noted as 0.151 µM (active)

Lab book: GI50 of CC1(O)CC2C(CC1SCCO)C2(C)C (stereo not given) noted as > 100 µM (inactive)

###

System: DU-145
EXPERIMENTAL PROTOCOL: NCI tumour cell line growth inhibition, 48 h
The source made the active and inactive calls. No stated cut-off is given here; in the data, active = GI50 up to about 1.1 µM and inactive = higher.
Could you please report measured GI50 for the items listed next?

Lab book: GI50 of Fc1cccc(C2ON=C(c3ccccc3)N2C23CC4CC(CC(C4)C2)C3)c1 (configuration not stated) noted as > 10 µM (inactive)

Lab book: GI50 of CC12CCC([C@H](C(O)C3CCCCC3)C1=O)C2(C)C (some centres not stated) noted as > 100 µM (inactive)

Lab book: GI50 of C=CCN1C(N)=C(C#N)C(C#N)(C#N)C1CCC (configuration not stated) noted as > 100 µM (inactive)

Lab book: GI50 of COC(=O)C(Cc1ccccc1)NC(=O)C(CNC(=O)OCc1ccccc1)C(=O)OCc1ccccc1 (configuration not stated) noted as > 100 µM (inactive)

Lab book: GI50 of "NS(=O)(=O)c1ccc(NCc2cnc3ccccc3c2)cc1" noted as > 100 µM (inactive)

Lab book: GI50 of CC(=O)c1c2c(cc3c1CC1(Cc4cc5c(cc4C1=O)CCC5)C3)CCC2 (configuration not stated) noted as > 72.3 µM (inactive)

Lab book: GI50 of "O=[N+]([O-])/C(C(Cl)=C(Cl)Cl)=C(\NCc1ccccc1)Sc1ccccc1" noted as 36.6 µM (inactive)

Lab book: GI50 of "COc1cccc(C(=O)C#Cc2cnc(OC)nc2OC)c1" noted as 5.87 µM (inactive)

Lab book: GI50 of "O=c1c(Sc2ncccn2)c(Sc2ncccn2)cnn1CCl" noted as 2.64 µM (inactive)

Lab book: GI50 of "Cc1cn2c(/C=N/NC(=N)N)c(-c3ccc(Cl)c([N+](=O)[O-])c3)nc2s1" noted as 1.79 µM (inactive)

Lab book: GI50 of "O=C1/C(=C/c2ccc(Cl)cc2)NC(=S)N1CN1CCOCC1" noted as > 100 µM (inactive)

Lab book: GI50 of COC(=O)Nc1nc2cc(S(=O)(=O)NC(CC(C)C)C(=O)OC)ccc2[nH]1 (configuration not stated) noted as 2.43 µM (inactive)

Lab book: GI50 of "COc1cc(/C=C\C(=O)O)ccc1OCc1ccccc1" noted as > 100 µM (inactive)

Lab book: GI50 of "COC(=O)C1(OC(=O)Sc2ccccc2)CCN(C)CC1" noted as 23.8 µM (inactive)

Lab book: GI50 of "COc1ccc(Oc2ccc3cc4c(cc3c2O)OCO4)c2cc(C)oc12" noted as 39.7 µM (inactive)

Lab book: GI50 of O=c1ccn(C2OC(COC3CCCCO3)C(OC3CCCCO3)C2OC2CCCCO2)c(=O)n1-c1ccccc1 (configuration not stated) noted as > 100 µM (inactive)

Lab book: GI50 of "CCn1c2ccccc2c2cc(/N=N\c3ccc(C#N)cc3)ccc21" noted as 62.7 µM (inactive)
